# target-system: Nuclear receptor coactivator 2 (Homo sapiens) (UniProt Q15596)
# Sequence (Q15596 whole entry, looked up): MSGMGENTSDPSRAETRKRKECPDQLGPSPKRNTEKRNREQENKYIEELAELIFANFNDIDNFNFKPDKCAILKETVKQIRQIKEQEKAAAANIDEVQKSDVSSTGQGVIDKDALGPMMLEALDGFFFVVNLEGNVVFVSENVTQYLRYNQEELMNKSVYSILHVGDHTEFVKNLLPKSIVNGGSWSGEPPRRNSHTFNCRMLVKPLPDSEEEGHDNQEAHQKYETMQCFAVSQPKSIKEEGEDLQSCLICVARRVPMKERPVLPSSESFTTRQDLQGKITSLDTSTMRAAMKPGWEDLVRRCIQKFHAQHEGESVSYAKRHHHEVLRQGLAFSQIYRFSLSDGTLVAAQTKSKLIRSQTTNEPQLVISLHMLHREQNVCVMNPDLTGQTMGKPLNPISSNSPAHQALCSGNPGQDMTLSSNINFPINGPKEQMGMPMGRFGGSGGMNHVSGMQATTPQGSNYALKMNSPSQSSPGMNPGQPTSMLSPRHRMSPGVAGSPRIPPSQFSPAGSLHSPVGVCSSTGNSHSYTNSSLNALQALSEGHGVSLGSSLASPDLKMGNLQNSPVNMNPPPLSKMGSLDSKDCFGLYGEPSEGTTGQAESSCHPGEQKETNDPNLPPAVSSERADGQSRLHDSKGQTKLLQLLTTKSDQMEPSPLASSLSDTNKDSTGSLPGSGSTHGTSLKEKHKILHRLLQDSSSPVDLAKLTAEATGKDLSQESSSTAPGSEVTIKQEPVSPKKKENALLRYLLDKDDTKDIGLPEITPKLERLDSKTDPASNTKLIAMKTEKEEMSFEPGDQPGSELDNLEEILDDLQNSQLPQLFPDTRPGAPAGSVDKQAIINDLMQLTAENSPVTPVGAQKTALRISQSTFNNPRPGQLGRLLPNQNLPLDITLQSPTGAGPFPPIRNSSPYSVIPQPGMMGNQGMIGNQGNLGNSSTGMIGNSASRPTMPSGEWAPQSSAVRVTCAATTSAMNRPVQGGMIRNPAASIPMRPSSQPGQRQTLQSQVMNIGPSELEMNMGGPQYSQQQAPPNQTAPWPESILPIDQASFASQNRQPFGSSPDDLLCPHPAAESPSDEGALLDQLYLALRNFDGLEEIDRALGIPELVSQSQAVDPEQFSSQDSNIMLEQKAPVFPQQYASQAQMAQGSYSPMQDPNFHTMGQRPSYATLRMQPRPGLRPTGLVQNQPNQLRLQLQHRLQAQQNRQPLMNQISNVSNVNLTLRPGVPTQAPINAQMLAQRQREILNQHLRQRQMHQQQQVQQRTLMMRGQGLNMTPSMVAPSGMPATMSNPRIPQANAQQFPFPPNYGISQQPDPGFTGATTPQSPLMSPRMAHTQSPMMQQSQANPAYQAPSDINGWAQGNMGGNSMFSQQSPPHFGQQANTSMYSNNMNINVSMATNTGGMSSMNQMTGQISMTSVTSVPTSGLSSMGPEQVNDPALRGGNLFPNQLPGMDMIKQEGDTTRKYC
# experiment-description: SRC2 coactivator transcriptional activity inhibitors, confirmation, cell-based, luminescence, HEK293, triplicate (AID 652008)
# condition-details: HEK293 GAL4-SRC2 luciferase reporter, at 8.9 µM
Calls of active or inactive are those of the source.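 Rule for the calls: active = mean inhibition above 46.5%, the solvent-only control mean plus 3 SD; inactive = the rest.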
Pick one: t = active, f = inactive

- compound: "CC(=O)c1ccc(OCCCC(=O)Nc2ccc(C)c(S(=O)(=O)N3CCCCC3)c2)cc1"
  classification: "f"
- compound: "C[C@@H]1C[C@@H]2O[C@H]2CCCCC(=O)Cc2cc(O)cc(O)c2C(=O)O1"
  classification: "f"
- compound: "COc1ccc(S(=O)(=O)N2CCCC(C(=O)NCc3ccncc3)C2)cc1 (centres undefined)"
  classification: "f"
- compound: "COc1ccc(N(C(=O)CCl)C(C(=O)NCCc2ccccc2)c2cccs2)cc1Cl (centres undefined)"
  classification: "t"
- compound: "CCOc1ccc(-c2nc(CSCC(=O)NCc3ccco3)c(C)o2)cc1"
  classification: "f"
- compound: "COc1cc(C(=O)/C=C/c2cccnc2)c([N+](=O)[O-])cc1OC"
  classification: "f"
- compound: "CCN(CC)CCC(=O)N1C/C(=C/c2ccccc2)C(=O)/C(=C\\c2ccccc2)C1"
  classification: "f"
- compound: "COc1ccc(S(=O)(=O)N2CCC(C(=O)c3ccc4c(c3)OCCO4)CC2)cc1"
  classification: "f"

Ask: Tell me the recorded outcome of this test for "CC[C@@H](C)[C@H](NC(=O)CCc1c(C)c2cc3c4c(oc3c(C)c2oc1=O)CCCC4)C(=O)O" .
Result: t

Ask: Tell me the recorded outcome of this test for "O=C(CCc1nnc(C2CCCCC2)o1)N1CCC(Oc2cccnc2)CC1" .
Result: f

Ask: Tell me the recorded outcome of this test for "Cc1ccc(Sc2c(C=O)c3ccccc3n2C)cc1" .
Result: f

Ask: Tell me the recorded outcome of this test for "CC(C)(C)OC(=O)NCCCCCNC(=O)c1nc[nH]c1C(=O)NCCCCCNC(=O)OC(C)(C)C" .
Result: f

Ask: Tell me the recorded outcome of this test for "Cc1c(CCC(=O)N2CCC(C(=O)O)CC2)c(=O)oc2cc3oc4c(c3cc12)CCCC4" .
Result: t

Ask: Tell me the recorded outcome of this test for "O=S(=O)(O)Sc1ccccc1" .
Result: f

Ask: Tell me the recorded outcome of this test for "CNc1cccnc1C=NNC(N)=S" .
Result: f

---

# Tested on: transactivating tegument protein VP16 (Human herpesvirus 1), Gal4-VP16 luciferase reporter
# experiment-description: VP16 transactivation inhibitors, counter-screen for SRC3 inhibitor project, cell-based, luminescence, high throughput (AID 588794)
# condition-details: mammalian cells, VP16-driven luciferase reporter luminescence; at 3.6 µM; stronger effect = higher value
Mark Y for reported inhibition of 50% or greater; mark N for anything smaller.

A selection of reference data follows.
- compound: "N=c1c(C(=O)NCC2CCCO2)cc2c(=O)n3ccccc3nc2n1Cc1cccnc1 (stereo unspecified)"
  target-system: "transactivating tegument protein VP16 (Human herpesvirus 1), Gal4-VP16 luciferase reporter"
  classification: "N"
- compound: "CCOc1cc(N2CCOCC2)c(OCC)cc1NC(=O)c1cc(-c2ccco2)nc2ccccc12"
  target-system: "transactivating tegument protein VP16 (Human herpesvirus 1), Gal4-VP16 luciferase reporter"
  classification: "N"
- compound: "Cc1nc(N)nc(N)c1/C=C/C(C)(C)c1ccc(Cl)cc1"
  target-system: "transactivating tegument protein VP16 (Human herpesvirus 1), Gal4-VP16 luciferase reporter"
  classification: "N"

Ask: Is the recorded value of inhibition equal to or greater than 50% for this compound? "CCOC(=O)c1c(C)[nH]c2c1-c1ccccc1C(=O)C2=O"
Result: Y

Ask: Is the recorded value of inhibition equal to or greater than 50% for this compound? "CCCN(CC(=O)Nc1ccccc1C)C(=O)CCl"
Result: N

Ask: Is the recorded value of inhibition equal to or greater than 50% for this compound? "CC(C)(CC(=O)O)CC(=O)Nc1ccc(Oc2ccc(C(C)(C)C)cc2)nc1"
Result: N

The reported numbers originate from PubChem BioAssay.
